Target or test system: HLA-B*53:01
Assay notes: IEDB peptide-MHC binding, purified MHC/competitive/radioactivity; filed as Kd, often an IC50 or EC50 that approximates it; bounds were set here for any values at or beyond the usual limits of such assays
Condition context: source organism: Vaccinia virus WR
Mark each entry yes if its Kd sits below 500 nM, and no for all others.

Ask: Dear colleague, could you confirm whether Kd of LLTACTIFYI falls below 500 nM? Thanks.
Result: no

Ask: Dear colleague, could you confirm whether Kd of TPLHKYCVNL falls below 500 nM? Thanks.
Result: no

Ask: Dear colleague, could you confirm whether Kd of IPYSRVNHA falls below 500 nM? Thanks.
Result: yes

Ask: Dear colleague, could you confirm whether Kd of EVVMAYVGIK falls below 500 nM? Thanks.
Result: no

Ask: Dear colleague, could you confirm whether Kd of KPFNNILNLI falls below 500 nM? Thanks.
Result: no

Ask: Dear colleague, could you confirm whether Kd of EPSGNNYHIL falls below 500 nM? Thanks.
Result: no

Ask: Dear colleague, could you confirm whether Kd of SPLPSLEYGA falls below 500 nM? Thanks.
Result: no

Ask: Dear colleague, could you confirm whether Kd of DPGNPNCLEW falls below 500 nM? Thanks.
Result: yes

Ask: Dear colleague, could you confirm whether Kd of SPTEMVDVSM falls below 500 nM? Thanks.
Result: no

Ask: Dear colleague, could you confirm whether Kd of LPMIIGEPII falls below 500 nM? Thanks.
Result: yes

Ask: Dear colleague, could you confirm whether Kd of DPDHYKDYA falls below 500 nM? Thanks.
Result: no

Ask: Dear colleague, could you confirm whether Kd of LPPFTQHLL falls below 500 nM? Thanks.
Result: yes
